test system: Argrobacterium 1 (Agrobacterium sp.); test: relative growth (AUC of 72 h growth curve relative to DMSO control, dAUC) (ratio); higher = more growth (less inhibition), active = hit call of the paper; conditions: 20 µM
Each record here notes measured relative growth.
Write the value as a bare number.

// solved cases for relative growth follow
{"columns": ["molecule", "valueKind", "observedValue"],
 "data": [
  ["COC(=O)NC(=S)Nc1ccccc1NC(=S)NC(=O)OC", "relative growth", 1.02],
  ["Oc1ccc(Cl)cc1Cc1cc(Cl)ccc1O", "relative growth", 0.959],
  ["COP(N)(=O)SC (stereo not given)", "relative growth", 1.14]
]}

Lab note: measured relative growth of `CC1=NNC(=O)N(/N=C/c2cccnc2)C1` was 0.954

Lab note: measured relative growth of `CCc1cccc(C)c1N(C(=O)CCl)[C@@H](C)COC` was 1

Lab note: measured relative growth of `O=C(NC(=O)c1c(F)cccc1F)Nc1ccc(Cl)cc1` was 1.04

###

tested on: Sphingomonas 2 (Sphingomonas sp.); assay: relative growth (AUC of 72 h growth curve relative to DMSO control, dAUC) (ratio); higher = more growth (less inhibition), active = hit call of the paper; settings: 20 µM
valueKind: relative growth
Write the value as a bare number.

// solved cases for relative growth follow
{"columns": ["molecule", "relative growth"],
 "data": [
  ["CC1=NNC(=O)N(/N=C/c2cccnc2)C1", 1.03],
  ["CC(C)(C)[C@@H](O)[C@H](Oc1ccc(Cl)cc1)n1cncn1", 1.08],
  ["CS(=O)(=O)NC(=O)c1cc(Oc2ccc(C(F)(F)F)cc2Cl)ccc1[N+](=O)[O-]", 1.02]
]}

Now consider the entry below.
Lab note: measured relative growth of `CCc1nn(C)c(C(=O)NCc2ccc(Oc3ccc(C)cc3)cc2)c1Cl` was 1.04

###

system: Prolinoborus 1 (Prolinoborus fasciculus); assay: relative growth (AUC of 72 h growth curve relative to DMSO control, dAUC) (ratio); higher = more growth (less inhibition), active = hit call of the paper; details: 20 µM
Decide using relative growth: a value greater than or equal to 1 is Yes, a smaller one is No.

Some solved entries appear below for comparison.
{"columns": ["molecule", "className"],
 "data": [
  ["CC(C)CC(C)c1sccc1NC(=O)c1cn(C)nc1C(F)(F)F (configuration not stated)", "No"],
  ["Clc1ccc(C(c2ccc(Cl)cc2)C(Cl)(Cl)Cl)cc1", "Yes"],
  ["O=C(O)c1nc(Cl)ccc1Cl", "No"],
  ["CC1(C)C(C=C(Cl)Cl)C1C(=O)OC(C#N)c1ccc(F)c(Oc2ccccc2)c1 (configuration not stated)", "Yes"],
  ["Cc1cc(C2CC2)nc(Nc2ccccc2)n1", "Yes"],
  ["CNC(=O)Oc1cccc(/N=C/N(C)C)c1", "No"],
  ["COC(=O)c1ccccc1S(=O)(=O)NC(=O)Nc1nc(C)nc(OC)n1", "Yes"],
  ["CCOc1cc(Oc2ccc(C(F)(F)F)cc2Cl)ccc1[N+](=O)[O-]", "No"]
]}

Task item: Record `CCOP(=S)(OCC)Oc1cc(C)nc(C(C)C)n1` ; criterion: relative growth no lower than 1. Met?
Reply: No

Task item: Record `COP(=S)(OC)SCN1C(=O)c2ccccc2C1=O` ; criterion: relative growth no lower than 1. Met?
Reply: Yes
